Experiment: Cytotoxicity assay against human cancer cell line SW480
Assay type: cell-based
Conditions: SW480 cells
pIC50: −log10 of the molar value.
metric: pIC50

Request: Record request: pIC50 value, item `COc1cc(-c2cc3c(c(=O)o2)C(C)(C)[C@H](C)O3)ccc1O`
Response: < 4.40

Request: Record request: pIC50 value, item `COc1ccc(-c2cc3c(c(=O)o2)C(C)(C)[C@H](C)O3)cc1OC`
Response: < 4.40

---

Could you please report measured selectivity ratio at 48 h for the items listed next?
Test system: Kaposi's sarcoma associated herpesvirus (KSHV) lytic replication
Experiment: in vitro
Assay type: cell-based
Details: human; CC50 (iSLK.219 cells) / IC50 (KSHV lytic replication); read-out: Selective Index (CC50/IC50)

Request: Record request: selectivity ratio at 48 h value, item `COc1ccc(-c2cc3c(c(=O)o2)C(C)(C)[C@H](C)O3)cc1OC`
Response: > 6.79

Request: Record request: selectivity ratio at 48 h value, item Nc1ccn(C[C@@H](CO)OCP(=O)(O)O)c(=O)n1 [CDV, cidofovir, reference compound]
Response: > 250

Request: Record request: selectivity ratio at 48 h value, item `COc1cc(-c2cc3c(c(=O)o2)C(C)(C)[C@H](C)O3)ccc1O`
Response: > 2.34
